EXPERIMENTAL TARGET: GST-NTL8 NAC domain (Arabidopsis thaliana, UniProt Q9XIN7 14-156)
Sequence: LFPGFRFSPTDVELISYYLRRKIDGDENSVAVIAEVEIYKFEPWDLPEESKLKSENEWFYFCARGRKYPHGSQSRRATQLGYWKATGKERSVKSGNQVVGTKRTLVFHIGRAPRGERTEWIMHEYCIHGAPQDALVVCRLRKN
EXPERIMENTAL DETAILS: universal protein binding microarray (PBM); transcription factors of Arabidopsis thaliana; high values mean tight binding
DETAILS: protein: recombinant; tags: GST; chain copies: 2; dsDNA, one strand shown
Lab note - cut at 0.2 E-score for binding signal: 1.0 if strictly below, 0.0 if not.

{"RECORD SEQUENCE": "ATAAGGAA", "CLASS": 0.0}
{"RECORD SEQUENCE": "ATACGCCA", "CLASS": 1.0}
{"RECORD SEQUENCE": "CACGGAAG", "CLASS": 1.0}
{"RECORD SEQUENCE": "AGGAAACT", "CLASS": 0.0}
{"RECORD SEQUENCE": "ATACTTAA", "CLASS": 1.0}

In: Field: below-cutoff. Rule: recorded binding signal strictly less than 0.2 E-score. Subject: `ATTGCGTG`
Out: 1.0

In: Quick check: does `AGGGTAAG` have binding signal under 0.2 E-score?
Out: 0.0
